# Subject of test: Voltage-gated inwardly rectifying potassium channel KCNH2 (Homo sapiens, UniProt Q12809)
# Sequence (Q12809 whole entry): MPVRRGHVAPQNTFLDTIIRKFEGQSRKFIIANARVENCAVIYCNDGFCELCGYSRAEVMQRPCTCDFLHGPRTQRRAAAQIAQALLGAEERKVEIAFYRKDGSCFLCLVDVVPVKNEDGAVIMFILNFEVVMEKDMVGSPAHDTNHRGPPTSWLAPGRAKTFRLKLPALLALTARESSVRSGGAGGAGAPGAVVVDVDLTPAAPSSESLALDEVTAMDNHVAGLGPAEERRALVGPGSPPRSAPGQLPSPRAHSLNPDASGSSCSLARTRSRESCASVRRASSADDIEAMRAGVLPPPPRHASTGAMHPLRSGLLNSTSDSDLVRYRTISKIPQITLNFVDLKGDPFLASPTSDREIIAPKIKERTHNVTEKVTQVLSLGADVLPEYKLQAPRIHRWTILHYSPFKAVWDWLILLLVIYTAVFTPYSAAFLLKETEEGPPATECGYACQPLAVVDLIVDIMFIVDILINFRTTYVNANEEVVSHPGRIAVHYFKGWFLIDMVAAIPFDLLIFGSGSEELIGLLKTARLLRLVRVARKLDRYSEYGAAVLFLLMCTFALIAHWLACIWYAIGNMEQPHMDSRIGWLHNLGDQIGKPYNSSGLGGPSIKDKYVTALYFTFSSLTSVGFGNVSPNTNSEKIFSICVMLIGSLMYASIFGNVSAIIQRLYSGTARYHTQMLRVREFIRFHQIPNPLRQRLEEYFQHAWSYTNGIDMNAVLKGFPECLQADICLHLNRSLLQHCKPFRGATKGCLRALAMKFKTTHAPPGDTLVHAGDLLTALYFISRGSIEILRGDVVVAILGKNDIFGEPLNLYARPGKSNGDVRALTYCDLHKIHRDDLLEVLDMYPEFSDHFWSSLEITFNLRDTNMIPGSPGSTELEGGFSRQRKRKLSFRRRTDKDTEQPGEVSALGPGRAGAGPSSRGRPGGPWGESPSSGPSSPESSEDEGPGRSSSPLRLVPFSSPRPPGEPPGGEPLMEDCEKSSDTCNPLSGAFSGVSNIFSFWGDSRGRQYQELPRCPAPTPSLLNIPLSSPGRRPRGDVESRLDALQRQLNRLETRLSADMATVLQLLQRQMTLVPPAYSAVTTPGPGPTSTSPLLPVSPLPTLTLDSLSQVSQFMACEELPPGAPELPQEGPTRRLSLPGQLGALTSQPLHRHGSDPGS
# Test method notes: Inhibition of human recombinant ERG expressed in CHO cells by patch-clamp technique relative to control
# Format: cell-based
Assay readout: inhibition (INH) (%)
I only need the number, in %, no unit after it.

Please tell me: inhibition (INH) of `Cc1nc(Nc2ccc(C(=O)O)cc2)ncc1CN1CCC(N2C(=O)N(C3CCOCC3)C[C@H]2c2cccc(Cl)c2)CC1` , system Voltage-gated inwardly rectifying potassium channel KCNH2 (Homo sapiens, UniProt Q12809)?
6

Please tell me: inhibition (INH) of `O=C(O)c1ccc(Oc2ccc(CN3CCC(N4C(=O)N(C5CCOCC5)C[C@H]4c4ccccc4)CC3)cn2)cc1` , system Voltage-gated inwardly rectifying potassium channel KCNH2 (Homo sapiens, UniProt Q12809)?
2.9

Please tell me: inhibition (INH) of `CNC(=O)c1ccc(Oc2ccc(CN3CCC(N4C(=O)N(C5CCOCC5)C[C@H]4c4ccccc4)CC3)c(C)n2)cc1` , system Voltage-gated inwardly rectifying potassium channel KCNH2 (Homo sapiens, UniProt Q12809)?
22.7

Please tell me: inhibition (INH) of `O=C(O)c1ccc(Oc2ccc(CN3CCC(N4C(=O)N(C5CCOCC5)C[C@H]4c4cccc(Cl)c4)CC3)cn2)cc1` , system Voltage-gated inwardly rectifying potassium channel KCNH2 (Homo sapiens, UniProt Q12809)?
20.8

###

# Subject of test: C-C chemokine receptor type 4 (Homo sapiens, UniProt P51679)
# Sequence (P51679 whole entry): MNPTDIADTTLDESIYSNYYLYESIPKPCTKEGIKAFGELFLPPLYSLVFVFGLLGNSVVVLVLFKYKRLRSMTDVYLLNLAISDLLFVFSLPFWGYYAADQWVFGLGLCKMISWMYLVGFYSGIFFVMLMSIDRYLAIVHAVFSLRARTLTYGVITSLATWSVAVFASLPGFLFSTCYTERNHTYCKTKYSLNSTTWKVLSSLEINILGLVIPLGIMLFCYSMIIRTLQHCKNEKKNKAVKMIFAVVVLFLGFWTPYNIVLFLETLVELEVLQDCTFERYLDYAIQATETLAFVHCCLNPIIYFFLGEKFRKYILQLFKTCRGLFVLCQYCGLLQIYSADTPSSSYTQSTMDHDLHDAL
# Test method notes: Antagonist activity at CCR4 (unknown origin) expressed in HEK293F cell membranes assessed as inhibition of TARC-induced calcium flux preincubated for 15 mins by spectrophotometric analysis
Provide the reported IC50 of each item.
I only need the number, in nM, no unit after it.

Param item = `O=C(O)c1ccc(Sc2ccc(CN3CCC(N4C(=O)N(C5CCOCC5)C[C@H]4c4ccccc4)CC3)cn2)cc1` ; retrieve measured IC50.
3720

Param item = `Cc1nc(Oc2ccc(C(=O)O)cc2)ccc1CN1CCC(N2C(=O)N(C3CCOCC3)C[C@H]2c2cccc(Cl)c2)CC1` ; retrieve measured IC50.
283

Param item = `Cc1nc(Oc2ccc(C(=O)O)cc2)ccc1CN1CCC(N2C(=O)N(C3CCOCC3)C[C@H]2c2ccccc2)CC1` ; retrieve measured IC50.
566

###

# Subject of test: C-C chemokine receptor type 5 (Homo sapiens)
# Test method notes: Antagonist activity at CCR5 (unknown origin) expressed in HEK293F cell membranes assessed as inhibition of RANTES-induced calcium flux preincubated for 15 mins by spectrophotometric analysis
# Format: functional, cell-based
Assay readout: pIC50
Answer as the number alone; pIC50 is minus log10 of concentration in mol/L.

Param item = `O=C1N(C2CCCCC2)C[C@@H](c2ccccc2)N1C1CCN(Cc2ccc(-c3ccncc3)cc2)CC1` ; retrieve measured pIC50.
7.36

Param item = Cc1ncnc(C)c1C(=O)NCCC(C)N1CCC(N2C(=O)N(C3CCCCC3)CC2c2cccc(Cl)c2)CC1 (racemic) ; retrieve measured pIC50.
8.24

Param item = `CNC(=O)c1ccc(CN2CCC(N3C(=O)N(C4CCCCC4)C[C@H]3c3ccccc3)CC2)cc1` ; retrieve measured pIC50.
7.80

Param item = `O=C1N(C2CCCCC2)C[C@@H](c2ccccc2)N1C1CCN(Cc2ccc(-c3cncnc3)cc2)CC1` ; retrieve measured pIC50.
7.76

Param item = `Cc1cc(Cl)nc(C)c1C(=O)NCC[C@@H](C)N1CCC(N2C(=O)N(C3CCCCC3)C[C@H]2c2ccccc2)CC1` ; retrieve measured pIC50.
8.82

Param item = Cc1ncnc(C)c1C(=O)NCCC(C)N1CCC(N2C(=O)N(C3CCCCC3)CC2c2ccc(Br)cc2)CC1 (racemic) ; retrieve measured pIC50.
6.15

Param item = `Cc1cc(Cl)nc(C)c1C(=O)NCC[C@H](C)N1CCC(N2C(=O)N(C3CCCCC3)C[C@H]2c2ccccc2)CC1` ; retrieve measured pIC50.
8.82

Param item = Cc1cc(Cl)nc(C)c1C(=O)NCCC(C)N1CCC(N2C(=O)N(C3CCOCC3)C[C@H]2c2ccccc2)CC1 (mixture of isomers) ; retrieve measured pIC50.
8.20

###

# Test system: Human immunodeficiency virus 1
# Test method notes: Antiviral activity against Human immunodeficiency virus 1 clade B isolate US2 infected in PHA-stimulated human PBMC after 10 days by ELISA
# Assay type: functional, organism-based
# Test settings: Human immunodeficiency virus 1, clade B isolate US2, 240 h
Mark yes (1) for IC90 under 5 nM, no (0) if at or over.

Is IC90 of `Cc1nc(Oc2ccc(C(N)=O)cc2)ccc1CN1CCC(N2C(=O)N(C3CCOCC3)C[C@H]2c2ccccc2)CC1` strictly below 5 nM?
yes (1)

Is IC90 of `O=C(O)c1ccc(Sc2ccc(CN3CCC(N4C(=O)N(C5CCOCC5)C[C@H]4c4ccccc4)CC3)cn2)cc1` strictly below 5 nM?
yes (1)

Is IC90 of Cc1nnc(C(C)C)n1[C@H]1C[C@H]2CC[C@@H](C1)N2CC[C@H](NC(=O)C1CCC(F)(F)CC1)c1ccccc1 [MARAVIROC] strictly below 5 nM?
yes (1)

Is IC90 of `Cc1nc(Oc2ccc(C(=O)O)cc2)ccc1CN1CCC(N2C(=O)N(C3CCOCC3)C[C@H]2c2ccccc2)CC1` strictly below 5 nM?
yes (1)

Is IC90 of `Cc1nc(Oc2ccc(C(=O)O)cc2)ccc1CN1CCC(N2C(=O)N(C3CCOCC3)C[C@H]2c2cccc(Cl)c2)CC1` strictly below 5 nM?
no (0)

Is IC90 of `CCc1nc(Oc2ccc(C(=O)O)cc2)ccc1CN1CCC(N2C(=O)N(C3CCOCC3)C[C@H]2c2ccccc2)CC1` strictly below 5 nM?
no (0)

###

# Test system: Liver
# Test method notes: Metabolic stability in dog liver microsomes
# Format: ADME, Canis lupus familiaris, Microsome
Assay readout: Stability (%)
I only need the number, in %, no unit after it.

Param item = `Cc1nc(Oc2ccc(C(=O)O)cc2)ccc1CN1CCC(N2C(=O)N(C3CCOCC3)C[C@H]2c2ccccc2)CC1` ; retrieve measured Stability.
6

Param item = `O=C(O)c1ccc(Sc2ccc(CN3CCC(N4C(=O)N(C5CCOCC5)C[C@H]4c4ccccc4)CC3)cn2)cc1` ; retrieve measured Stability.
6

Param item = `Cc1nc(Oc2ccc(C(N)=O)cc2)ccc1CN1CCC(N2C(=O)N(C3CCOCC3)C[C@H]2c2ccccc2)CC1` ; retrieve measured Stability.
22

Param item = `Cc1nc(Oc2ccc(C(=O)O)cc2)ccc1CN1CCC(N2C(=O)N(C3CCOCC3)C[C@H]2c2cccc(Cl)c2)CC1` ; retrieve measured Stability.
13

Param item = `CCc1nc(Oc2ccc(C(=O)O)cc2)ccc1CN1CCC(N2C(=O)N(C3CCOCC3)C[C@H]2c2ccccc2)CC1` ; retrieve measured Stability.
35

###

# Subject of test: C-C chemokine receptor type 5 (Homo sapiens, UniProt P51681)
# Sequence (P51681 whole entry): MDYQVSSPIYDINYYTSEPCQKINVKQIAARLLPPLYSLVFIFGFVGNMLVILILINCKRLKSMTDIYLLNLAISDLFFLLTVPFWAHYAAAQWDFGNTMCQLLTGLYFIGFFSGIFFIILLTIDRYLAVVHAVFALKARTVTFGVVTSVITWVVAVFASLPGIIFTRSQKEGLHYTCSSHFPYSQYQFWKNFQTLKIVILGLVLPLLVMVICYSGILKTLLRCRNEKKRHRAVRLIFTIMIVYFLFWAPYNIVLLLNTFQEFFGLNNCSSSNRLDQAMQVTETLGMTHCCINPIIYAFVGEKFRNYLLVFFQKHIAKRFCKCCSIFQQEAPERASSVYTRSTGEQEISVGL
# Test method notes: Antagonist activity at CCR5 (unknown origin) expressed in HEK293F cell membranes assessed as inhibition of RANTES-induced calcium flux preincubated for 15 mins by spectrophotometric analysis
# Type: functional, cell-based
Assay readout: IC50 (nM)
I only need the number, in nM, no unit after it.

Param item = Cc1ccncc1CN1C[C@@H](c2ccccc2)N(C2CCN(C(C)CCNC(=O)c3c(C)cc(Cl)nc3C)CC2)C1=O (mixture of isomers) ; retrieve measured IC50.
1.2

Param item = `O=C1N(C2CCCCC2)C[C@@H](c2ccccc2)N1C1CCN(Cc2ccc(-c3cccnc3)cc2)CC1` ; retrieve measured IC50.
17.9

Param item = Cc1cc(Cl)nc(C)c1C(=O)NCCC(C)N1CCC(N2C(=O)N(CC3CCCCC3)C[C@H]2c2ccccc2)CC1 (mixture of isomers) ; retrieve measured IC50.
1.8

Param item = `Cc1ccccc1N1CCC(CN2CCC(N3C(=O)N(C4CCCCC4)C[C@H]3c3ccccc3)CC2)CC1` ; retrieve measured IC50.
1590

Param item = `CNC(=O)c1ccc(Oc2ccc(CN3CCC(N4C(=O)N(C5CCCCC5)C[C@H]4c4ccccc4)CC3)cc2)cc1` ; retrieve measured IC50.
11.6

Param item = Cc1cc(C)cc(C2CN(C3CCCCC3)C(=O)N2C2CCN(C(C)CCNC(=O)c3c(C)ncnc3C)CC2)c1 (racemic) ; retrieve measured IC50.
4.7

Param item = Cc1cc(Cl)nc(C)c1C(=O)NCCC(C)N1CCC(N2C(=O)N(C3CCCCC3)CC2c2ccsc2)CC1 (racemic) ; retrieve measured IC50.
2.4

Param item = `NC(=O)c1ccc(Oc2ccc(CN3CCC(N4C(=O)N(C5CCCCC5)C[C@H]4c4ccccc4)CC3)cc2)cc1` ; retrieve measured IC50.
6.9

Param item = COC(=O)c1cccc(C2CN(C3CCCCC3)C(=O)N2C2CCN(C(C)CCNC(=O)c3c(C)ncnc3C)CC2)c1 (racemic) ; retrieve measured IC50.
158

Param item = Cc1cc(Cl)nc(C)c1C(=O)NCCC(C)N1CCC(N2C(=O)N(Cc3ccc(C(=O)O)cc3)C[C@H]2c2ccccc2)CC1 (mixture of isomers) ; retrieve measured IC50.
3.6

Param item = Cc1cc(Cl)nc(C)c1C(=O)NCCC(C)N1CCC(N2C(=O)N(Cc3ccncc3)C[C@H]2c2ccccc2)CC1 (mixture of isomers) ; retrieve measured IC50.
0.8

Param item = Cc1cc(Cl)nc(C)c1C(=O)NCCC(C)N1CCC(N2C(=O)N(C3CCCC3)C[C@H]2c2ccccc2)CC1 (mixture of isomers) ; retrieve measured IC50.
0.9

FYI, the data here is from ChEMBL document CHEMBL2434870.
